Would you kindly list ELISA signal, free CD3e 125 pmol/well for each of these binders?
# tested on: T1, biotin-labeled human CD137 fused to human IgG1 Fc fragment (human, biotin-labeled);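 also: bead ELISA on streptavidin-coated magnetic beads, with the signal read as well fluorescence 2 min after APS-5 addition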
# T1 construct: Immobilised on streptavidin beads through biotin; also called human CD137-Fc; biotin-human CD137-Fc
# measurement description: competitive bead ELISA, IgG on biotin-human CD137-Fc, competitor free CD3 epsilon peptide 125 pmol/well
I'd appreciate a reply containing only the number, no unit.

Identify measured ELISA signal, free CD3e 125 pmol/well associated with dBBDu186 (antibody, human IgG1, V domains shown, IgG: VH joined to human IgG1 CH1-Fc, GLS3000 as light chain) VH: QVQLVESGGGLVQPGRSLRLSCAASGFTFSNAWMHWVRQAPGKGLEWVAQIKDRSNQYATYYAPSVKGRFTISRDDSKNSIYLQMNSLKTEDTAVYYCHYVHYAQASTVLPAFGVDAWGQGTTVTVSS VL: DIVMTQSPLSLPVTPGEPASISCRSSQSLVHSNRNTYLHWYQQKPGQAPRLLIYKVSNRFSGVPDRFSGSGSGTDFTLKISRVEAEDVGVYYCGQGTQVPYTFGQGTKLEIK
2500

Give the measured ELISA signal, free CD3e 125 pmol/well for dBBDu123 (antibody, human IgG1, V domains shown, IgG: VH joined to human IgG1 CH1-Fc, GLS3000 as light chain; also called DADU01_3_#018; DADU01_3 #018) VH: QVQLVESGGGLVQPGRSLRLSCAASGFTFSNAWMHWVRQAPGKGLEWVAQIKDRANSYNAYYAPSVKGRFTISRDDSKNSIYLQMNSLKTEDTAVYYCHYVHYSAASTLLPSFGVDAWGQGTTVTVSS VL: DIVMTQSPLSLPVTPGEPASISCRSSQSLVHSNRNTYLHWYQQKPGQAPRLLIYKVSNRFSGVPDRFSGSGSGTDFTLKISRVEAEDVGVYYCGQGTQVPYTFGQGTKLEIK
1840

Name the recorded ELISA signal, free CD3e 125 pmol/well of the binder listed here: dBBDu124 (antibody, human IgG1, V domains shown, IgG: VH joined to human IgG1 CH1-Fc, GLS3000 as light chain; also called DADU01_3_#002; DADU01_3 #002) VH: QVQLVESGGGLVQPGRSLRLSCAASGFTFSNAWMHWVRQAPGKGLEWVAQIKDKQNLYNAYYAESVKGRFTISRDDSKNSIYLQMNSLKTEDTAVYYCHYVHYASASTVLPAFGVDAWGQGTTVTVSS VL: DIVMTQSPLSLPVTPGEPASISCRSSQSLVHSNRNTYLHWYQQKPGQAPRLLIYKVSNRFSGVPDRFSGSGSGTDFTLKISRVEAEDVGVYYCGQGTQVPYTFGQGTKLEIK
2120

Check the records and state ELISA signal, free CD3e 125 pmol/well for dBBDu202 (antibody, human IgG1, V domains shown, IgG: VH joined to human IgG1 CH1-Fc, GLS3000 as light chain) VH: QVQLVESGGGLVQPGRSLRLSCAASGFTFSNAWMHWVRQAPGKGLEWVAQIKDKGNAYAAYYAPSVKGRFTISRDDSKNSIYLQMNSLKTEDTAVYYCHYVHYSAASTVLPAFGVDAWGQGTTVTVSS VL: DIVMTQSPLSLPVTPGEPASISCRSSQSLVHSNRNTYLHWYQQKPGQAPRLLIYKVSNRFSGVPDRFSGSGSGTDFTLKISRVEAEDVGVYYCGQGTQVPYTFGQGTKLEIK
1930

Identify ELISA signal, free CD3e 125 pmol/well associated with the binder dBBDu173 (antibody, human IgG1, V domains shown, IgG: VH joined to human IgG1 CH1-Fc, GLS3000 as light chain) VH: QVQLVESGGGLVQPGRSLRLSCAASGFTFSNAWMHWVRQAPGKGLEWVAQIKDKGNLYAAYYAPSVKGRFTISRDDSKNSIYLQMNSLKTEDTAVYYCHYVHYASAGGGLSAYGVDAWGQGTTVTVSS VL: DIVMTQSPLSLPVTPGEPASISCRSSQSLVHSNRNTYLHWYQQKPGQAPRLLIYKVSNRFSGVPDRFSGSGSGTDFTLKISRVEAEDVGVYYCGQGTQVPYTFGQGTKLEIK
2040

Please give the documented ELISA signal, free CD3e 125 pmol/well of dBBDu189 (antibody, human IgG1, V domains shown, IgG: VH joined to human IgG1 CH1-Fc, GLS3000 as light chain) VH: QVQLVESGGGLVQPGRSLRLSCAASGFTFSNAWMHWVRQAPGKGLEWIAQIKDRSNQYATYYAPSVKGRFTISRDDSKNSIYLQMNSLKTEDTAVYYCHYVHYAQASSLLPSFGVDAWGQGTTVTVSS VL: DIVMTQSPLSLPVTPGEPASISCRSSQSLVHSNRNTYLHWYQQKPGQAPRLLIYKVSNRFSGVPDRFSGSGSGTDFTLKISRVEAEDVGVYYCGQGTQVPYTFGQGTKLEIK
2190

Report measured ELISA signal, free CD3e 125 pmol/well; entry is dBBDu183 (antibody, human IgG1, V domains shown, IgG: VH joined to human IgG1 CH1-Fc, GLS3000 as light chain) VH: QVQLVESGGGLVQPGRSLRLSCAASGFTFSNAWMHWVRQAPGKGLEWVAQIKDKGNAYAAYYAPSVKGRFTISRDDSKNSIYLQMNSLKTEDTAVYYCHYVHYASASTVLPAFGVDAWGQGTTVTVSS VL: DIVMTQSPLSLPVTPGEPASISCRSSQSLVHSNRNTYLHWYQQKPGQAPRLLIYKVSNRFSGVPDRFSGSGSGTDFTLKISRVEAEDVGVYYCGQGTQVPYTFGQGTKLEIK
2370

Assign ELISA signal, free CD3e 125 pmol/well to the following record: dBBDu205 (antibody, human IgG1, V domains shown, IgG: VH joined to human IgG1 CH1-Fc, GLS3000 as light chain) VH: QVQLVESGGGLVQPGRSLRLSCAASGFTFSNAWMHWVRQAPGKGLEWVAQIKDRSQLYAAYYAPSVKGRFTISRDDSKNSIYLQMNSLKTEDTAVYYCHYVHYASASTVLPAFGVDAWGQGTTVTVSS VL: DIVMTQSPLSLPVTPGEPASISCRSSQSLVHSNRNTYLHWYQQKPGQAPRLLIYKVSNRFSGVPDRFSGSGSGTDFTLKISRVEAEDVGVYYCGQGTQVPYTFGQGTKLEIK
2190

For dBBDu179 (antibody, human IgG1, V domains shown, IgG: VH joined to human IgG1 CH1-Fc, GLS3000 as light chain) VH: QVQLVESGGGLVQPGRSLRLSCAASGFTFSNAWMHWVRQAPGKGLEWVAQIKDRSNQYATYYAPSVKGRFTISRDDSKNSIYLQMNSLKTEDTAVYYCHYVHYASASTVLPAFGVDAWGQGTTVTVSS VL: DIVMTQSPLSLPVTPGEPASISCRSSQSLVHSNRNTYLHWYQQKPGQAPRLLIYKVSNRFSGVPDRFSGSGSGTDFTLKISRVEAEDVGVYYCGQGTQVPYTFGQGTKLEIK , write its ELISA signal, free CD3e 125 pmol/well.
2620

Report ELISA signal, free CD3e 125 pmol/well, nothing else, for this binder: dBBDu174 (antibody, human IgG1, V domains shown, IgG: VH joined to human IgG1 CH1-Fc, GLS3000 as light chain) VH: QVQLVESGGGLVQPGRSLRLSCAASGFTFSSAWMHWVRQAPGKGLEWVAQIKDRASAYNAYYAESVKGRFTISRDDSKNSIYLQMNSLKTEDTAVYYCRYVHYPSYVSFLPYYGVDAWGQGTTVTVSS VL: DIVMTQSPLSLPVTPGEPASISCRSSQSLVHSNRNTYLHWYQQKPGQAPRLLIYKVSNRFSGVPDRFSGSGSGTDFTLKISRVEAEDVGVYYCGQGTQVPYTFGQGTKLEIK
1880
